# credit: patent US20250144067A1

# System: NCI-H292 lung cancer cells
# Method Notes: FDA drug screening, complete media vs cholesterol-free media without statin (TABLE 1)
# Assay type: cell-based, human
# Recorded Conditions: NCI-H292 cells in complete media
Counter-ions that a name gives are not always drawn.
For each of the compounds below, state its Complete.
Numbers only.

Example entries and their recorded answers appear below.
CN(CC(=O)O)C(=N)N [Creatine]; 1.348
COc1ccc(CCNCC(O)COc2cccc(C)c2)cc1OC (centres unmarked) [Bevantolol (hydrochloride)]; 0.7079
COc1cccc2c1cc([N+](=O)[O-])c1c(C(=O)O)cc3c(c12)OCO3 [Aristolochic acid A]; 0.7241
Clc1ccccc1C(c1ccccc1)(c1ccccc1)n1ccnc1 [Clotrimazole]; 0.7188
CN(C/C=C/c1ccccc1)Cc1cccc2ccccc12 [Naftifine (hydrochloride)]; 1.037
CCCNC(=O)NS(=O)(=O)c1ccc(Cl)cc1 [Chlorpropamide]; 0.9801
CC1(C)S[C@@H]2[C@H](NC(=O)Cc3ccccc3)C(=O)N2[C@H]1C(=O)O.CC1(C)S[C@@H]2[C@H](NC(=O)Cc3ccccc3)C(=O)N2[C@H]1C(=O)O.O.O.O.O.c1ccc(CNCCNCc2ccccc2)cc1 [Penicillin G benzathine (tetrahydrate)]; 1.064

From here, focus on the item given below.
Would you kindly share the measured Complete for CO[C@@]1(NC(=O)C(C(=O)O)c2ccc(O)cc2)C(=O)N2C(C(=O)O)=C(CSc3nnnn3C)CO[C@@H]21 (some centres unmarked) [Moxalactam (sodium salt)] ?
1.058

====

# System: NCI-H292 lung cancer cells
# Method Notes: FDA drug screening, complete media vs cholesterol-free media with simvastatin (TABLE 2)
# Type: cell-based, human
# Recorded Conditions: NCI-H292 cells, FDA drug library screen, cholesterol-free media with simvastatin 0.04 μM
Where a name gives a salt, the structure may show the parent alone.
For each of the compounds below, state its Cholesterol-free media + simvastatin (0.04 μM).
Give bare numbers.

Cc1nc2c([nH]1)-c1ccccc1N(C(=O)c1ccc(NC(=O)c3ccccc3-c3ccccc3)cc1)CC2 [Conivaptan (hydrochloride)]; 1.147

Record Cholesterol-free media + simvastatin (0.04 μM) for all entries; do not skip any.
1. C[C@H]1C[C@@H]2[C@H]([C@@H](O)C[C@@]3(C)[C@H]2CC[C@]3(O)C(=O)CO)[C@@]2(C)C=CC(=O)C=C12
2. O=C(CNC(=O)c1ccc(C2=NOC(c3cc(Cl)cc(C(F)(F)F)c3)(C(F)(F)F)C2)c2ccccc12)NCC(F)(F)F (stereo not drawn)

1.016
2.42

====

For each of the compounds below, state its Difference.
# System: NCI-H292 lung cancer cells
# Method Notes: FDA drug screening, complete media vs cholesterol-free media with simvastatin (TABLE 2)
# Format: cell-based, human
# Recorded Conditions: complete media vs cholesterol-free media + simvastatin (0.04 μM); >0 enhanced anti-cancer activity, about 0 neutral, <0 antagonist
Counter-ions that a name gives are not always drawn.
Give bare numbers.

Example entries and their recorded answers appear below.
CC1(C)[C@@H](O)CC[C@]2(C)[C@H]3C(=O)C=C4[C@@H]5C[C@@](C)(C(=O)O)CC[C@]5(C)CC[C@@]4(C)[C@]3(C)CC[C@@H]12; −0.10
CS(=O)(=O)c1ccc([C@@H](O)[C@@H](CO)NC(=O)C(Cl)Cl)cc1; −0.12
CC(C)(O/N=C(\C(=O)N[C@@H]1C(=O)N2C(C(=O)[O-])=C(C[n+]3ccccc3)CS[C@H]12)c1csc(N)n1)C(=O)O; −0.24
CSc1ccc2c(c1)N(CCC1CCCCN1C)c1ccccc1S2 (stereo not shown) [Thioridazine (hydrochloride)]; −0.13
CC(=O)/N=c1/sc(S(N)(=O)=O)nn1C [Methazolamide]; −0.20
CNS(=O)(=O)CCc1ccc2[nH]cc(C3CCN(C)CC3)c2c1 [Naratriptan (hydrochloride)]; −0.22

From here, focus on the item given below.
Would you kindly share the measured Difference for CC(C)C[C@H](NC(=O)[C@@H](O)[C@H](N)Cc1ccccc1)C(=O)O [Bestatin] ?
−0.27
